Target: Human Factor D (Homo sapiens)
Construct: purified from human serum; purchased Complement Technology, Inc; host or cells: human serum
Assay: Human Factor D assay (Example 8)
Type: biochemical
Details: Table 3; Human Factor D 80 nM, substrate Z-L-Lys-SBzl; read-out: IC50 (Stars)
pIC50: −log10 of the molar value.
Parameter pIC50: see the listing below.

Reported pIC50 of NC(=O)c1nn(CC(=O)N2C[C@H](O)C[C@H]2C(=O)Nc2cccc(-c3ccccc3Cl)c2F)c2ccccc12 [Compound 336] : > 6.00

Continuing:
Reported pIC50 of NC(=O)c1nn(CC(=O)N2C[C@@H](O)C[C@H]2C(=O)Nc2cccc(-c3ccccc3Cl)c2F)c2ccccc12 [Compound 354] : > 6.00

Reported pIC50 of NC(=O)c1nn(CC(=O)N2C[C@H](F)C[C@H]2C(=O)Nc2cccc(-c3ccc4nc[nH]c4c3F)c2F)c2ccccc12 [Compound 456] : > 6.00

----------
Biological target: Human Factor D (Homo sapiens)
Construct: purified from human serum; purchased Complement Technology, Inc; host or cells: human serum
Assay: Human Factor D assay (Example 8)
Format: biochemical
MEASUREMENT_LABEL: IC50

Reported IC50 of CC(=O)c1cn(CC(=O)N2C[C@H](F)C[C@H]2C(=O)Nc2cccc(-c3cc(F)c(F)cc3Cl)c2F)c2ccccc12 [Compound 82] : < 1000 nM

Reported IC50 of NC(=O)c1nn(CC(=O)N2C[C@H](F)C[C@H]2C(=O)Nc2cccc(-c3cc(F)cc(F)c3Cl)c2F)c2ccccc12 [Compound 94] : < 1000 nM

Reported IC50 of CC(=O)c1cn(CC(=O)N2C[C@H](F)C[C@H]2C(=O)Nc2cccc(SC(F)(F)F)c2)c2cc(O)ccc12 [Compound 48] : < 1000 nM

Reported IC50 of CC(=O)c1cn(CC(=O)N2C[C@H](F)C[C@H]2C(=O)Nc2cccc(-c3ccccc3Cl)c2F)c2c(C#N)cccc12 [Compound 79] : < 1000 nM

Reported IC50 of COc1ccc2c(O[C@@H]3C[C@@H](C(=O)NCc4cccc(Cl)c4F)N(C(=O)Cn4cc(C(C)=O)c5ccccc54)C3)cc(-c3ccccc3)nc2c1 [Compound 29] : > 10000 nM

----------
Molecular target: Human Factor D (Homo sapiens, UniProt P00746)
Construct: purified from human serum; purchased Complement Technology, Inc; host or cells: human serum
Sequence (P00746 26-253): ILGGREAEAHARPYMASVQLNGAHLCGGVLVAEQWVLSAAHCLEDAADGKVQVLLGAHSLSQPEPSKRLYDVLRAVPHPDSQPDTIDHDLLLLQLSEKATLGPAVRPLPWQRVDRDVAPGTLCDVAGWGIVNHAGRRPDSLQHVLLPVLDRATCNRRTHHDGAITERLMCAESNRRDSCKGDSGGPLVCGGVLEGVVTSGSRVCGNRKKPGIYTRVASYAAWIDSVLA
Test: Human Factor D assay (Example 8)
Assay type: biochemical
Details: Table 1; Human Factor D 80 nM, substrate Z-L-Lys-SBzl; read-out: IC50
MEASUREMENT_LABEL: IC50

Reported IC50 of CC(=O)n1cc(NC(=O)[C@H]2CCCN2C(=O)Nc2cccc(OC(F)(F)F)c2F)c2ccccc21 : > 10 µM

Reported IC50 of CC(=O)c1cn(CC(=O)N2C[C@H](F)C[C@H]2C(=O)Nc2cccc(-c3ccccc3Cl)c2F)c2c(-c3cn[nH]c3)cccc12 : < 1 µM

Reported IC50 of NC(=O)c1nn(CC(=O)N2C[C@H](F)C[C@H]2C(=O)Nc2cccc(-c3cc(F)c(F)cc3Cl)c2F)c2cnccc12 : < 1 µM

Reported IC50 of CC(=O)c1cn(CC(=O)N2C[C@H](F)C[C@H]2C(=O)Nc2cccc(Br)n2)c2ccc(C3(NC(=O)c4cncnc4)CC3)cc12 : < 1 µM

Reported IC50 of CC(=O)n1cc(NC(=O)[C@H]2CC(F)(F)CN2C(=O)NCc2cccc(Cl)c2F)c2ccccc21 : > 10 µM

Reported IC50 of NC(=O)n1cc(NC(=O)N2C[C@H](F)C[C@H]2C(=O)NS(=O)(=O)c2cccc(Cl)c2F)c2ccccc21 : > 10 µM

Reported IC50 of O=C1CCCc2c1c1ccccc1n2CC(=O)N1C[C@H](F)C[C@H]1C(=O)NCc1cccc(Cl)c1F : < 1 µM

Reported IC50 of O=C(NCc1cccc(Cl)c1F)[C@@H]1C[C@@H](F)CN1C(=O)Cn1cc([N+](=O)[O-])c2ccccc21 : < 1 µM

Reported IC50 of COc1ccc2c(O[C@@H]3C[C@@H](C(=O)NCc4cccc(Cl)c4F)N(C(=O)Nc4cn(C(C)=O)c5ccccc45)C3)cc(-c3ccccc3)nc2c1 : > 10 µM

Reported IC50 of CC(=O)n1cc(C(=O)C(=O)N2C[C@H](F)C[C@H]2C(=O)NCc2cccc(Cl)c2F)c2ccccc21 : > 10 µM

Reported IC50 of NS(=O)(=O)c1cn(CC(=O)N2C[C@H](F)C[C@H]2C(=O)NCc2cccc(Cl)c2F)c2ccccc12 : < 1 µM

Reported IC50 of CC(=O)Nc1cn(CC(=O)N2C[C@H](F)C[C@H]2C(=O)NCc2cccc(Cl)c2F)c2ccccc12 : < 1 µM

----------
Target: Human Factor D (Homo sapiens, UniProt P00746)
Construct: purified from human serum; purchased Complement Technology, Inc; host or cells: human serum
Assay: Human Factor D assay (Example 8)
Assay type: biochemical
Settings: Table 3; Human Factor D 80 nM, substrate Z-L-Lys-SBzl; read-out: IC50 (Stars)
Parameter IC50: see the listing below.

Reported IC50 of NC(=O)c1nn(CC(=O)N2C[C@H](F)C[C@H]2C(=O)Nc2cccc(-c3cc(Cl)c4nc[nH]c4c3)c2F)c2ccccc12 : < 1000 nM

Continuing:
Reported IC50 of NC(=O)c1nn(CC(=O)N2C[C@@H](F)C[C@H]2C(=O)Nc2cccc(-c3ccccc3Cl)c2F)c2ccccc12 : < 1000 nM

Reported IC50 of NC(=O)c1nn(CC(=O)N2C(=O)CC[C@H]2C(=O)Nc2cccc(-c3ccccc3Cl)c2F)c2ccccc12 : < 1000 nM

Reported IC50 of CC(=O)c1nn(CC(=O)N2C[C@H](F)C[C@H]2C(=O)Nc2cccc(-c3ccc4c(c3)CCN4)c2F)c2ccccc12 : < 1000 nM

----------
Parameter pIC50: see the listing below.
Target: Human Factor D (Homo sapiens)
Construct: purified from human serum; purchased Complement Technology, Inc; host or cells: human serum
Assay: Human Factor D assay (Example 8)
Format: biochemical
Conditions: Table 1; Human Factor D 80 nM, substrate Z-L-Lys-SBzl; read-out: IC50
pIC50: −log10 of the molar value.

Reported pIC50 of CC(=O)n1cc(NC(=O)[C@@H]2C[C@@H](F)CN2C(=O)NCc2cccc(Cl)c2F)c2ccccc21 : < 5.00

----------
Target: Human Factor D (Homo sapiens)
Construct: purified from human serum; purchased Complement Technology, Inc; host or cells: human serum
Test: Human Factor D assay (Example 8)
Type: biochemical
Details: Table 3; Human Factor D 80 nM, substrate Z-L-Lys-SBzl; read-out: IC50 (Stars)
pIC50: −log10 of the molar value.
MEASUREMENT_LABEL: pIC50

These recorded examples may help you get a feel for the data.
Reported pIC50 of CC(=O)c1cc(CC(=O)N2C[C@H](F)C[C@H]2C(=O)Nc2cccc(-c3ccccc3Cl)c2F)n2ccccc12 : > 6.00

Reported pIC50 of CC(=O)c1nn(CC(=O)N2C[C@H](F)C[C@H]2C(=O)Nc2cccc(Br)n2)c2ccc(O)cc12 : > 6.00

Reported pIC50 of CC(=O)c1nn(CC(=O)N2C[Si](C)(C)C[C@H]2C(=O)NCc2cccc(Cl)c2F)c2ccccc12 : 5.00 to 6.00

Please find the next molecule below.
Reported pIC50 of NC(=O)c1nn(CC(=O)N2CC[C@@H](O)[C@H]2C(=O)Nc2cccc(-c3ccccc3Cl)c2F)c2ccccc12 : > 6.00

----------
Molecular target: Human Factor D (Homo sapiens, UniProt P00746)
Construct: purified from human serum; purchased Complement Technology, Inc; host or cells: human serum
Experiment: Human Factor D assay (Example 8)
Type: biochemical
Conditions: Table 1; Human Factor D 80 nM, substrate Z-L-Lys-SBzl; read-out: IC50
pIC50: −log10 of the molar value.
MEASUREMENT_LABEL: pIC50

These recorded examples may help you get a feel for the data.
Field pIC50 (system: Human Factor D (Homo sapiens, UniProt P00746)) for entry CC(=O)c1cn(CC(=O)N2C[C@H](F)C[C@H]2c2ncc(-c3cccc(Cl)c3)[nH]2)c2ccccc12 = < 5.00

Field pIC50 (system: Human Factor D (Homo sapiens, UniProt P00746)) for entry O=C(NCc1cccc(Cl)c1F)[C@@H]1C[C@@H](F)CN1C(=O)Cn1nc(-c2cnc[nH]2)c2ccncc21 = > 6.00

Field pIC50 (system: Human Factor D (Homo sapiens, UniProt P00746)) for entry CC(=O)Nc1ccc(C(=O)N2C[C@H](F)C[C@H]2C(=O)NCc2cccc(Cl)c2F)cn1 = < 5.00

Field pIC50 (system: Human Factor D (Homo sapiens, UniProt P00746)) for entry O=C(NCc1cccc(Cl)c1F)[C@@H]1C[C@@H](F)CN1C(=O)Cn1c2c(c3ccccc31)CCNC2 = < 5.00

Field pIC50 (system: Human Factor D (Homo sapiens, UniProt P00746)) for entry CC(=O)c1cn(CC(=O)N2C[C@H](F)C[C@H]2C(=O)N2Cc3ccccc3C2)c2ccccc12 = < 5.00

Field pIC50 (system: Human Factor D (Homo sapiens, UniProt P00746)) for entry O=C(NCc1cccc(Cl)c1F)[C@@H]1C[C@@H](F)CN1C(=O)Cn1nc(I)c2ccncc21 = > 6.00

Continuing:
Field pIC50 (system: Human Factor D (Homo sapiens, UniProt P00746)) for entry NC(=O)c1cn(CC(=O)N2C[C@H](F)C[C@H]2C(=O)Nc2cccc(-c3ccccc3Cl)c2F)c2sccc12 = > 6.00

Field pIC50 (system: Human Factor D (Homo sapiens, UniProt P00746)) for entry CC(=O)Nc1cccc2c1c(C(C)=O)cn2CC(=O)N1C[C@H](F)C[C@H]1C(=O)Nc1cccc(-c2ccccc2Cl)c1F = < 5.00
